# subjectOfTest: bromodomain BRD4 (44-168), BRD4 (333-460), and BRD4 (1-477 or 44-460) (Homo sapiens)
# Construct: BRD4(44-168), BRD4(333-460), BRD4(44-460), BRD4(1-477), O60885-1; fused on or other part: N-terminal BirA biotinylation motif, biotinylated; The TVMV-cleavable His6 tag is removed, except in some BRD4(44-460) runs detected with anti-His terbium cryptate
# testDetails: Time Resolved Fluorescence Resonance Energy Transfer (TR-FRET) binding assay
# conditionNotes: one of the FRET assays described
pIC50: −log10 of the molar value.
measure: pIC50

Report pIC50 from bromodomain BRD4 (44-168), BRD4 (333-460), and BRD4 (1-477 or 44-460) (Homo sapiens) testing of Cc1csc(Cn2c3ccc(C(=O)N4CCC(F)C4)cc3c3c(C(N)=O)cc(-c4c(C)noc4C)cc32)n1 (centres unmarked) [Example 83]
> 7.30

Report its pIC50 with bromodomain BRD4 (44-168), BRD4 (333-460), and BRD4 (1-477 or 44-460) (Homo sapiens) as the test system: Cc1noc(C)c1-c1cc(C(N)=O)c2c3cc(C(=O)N4C[C@@H](C)O[C@@H](C)C4)ccc3n(C(=O)c3ccccc3)c2c1 [Example 46]
> 6.30

Ref: patent US9492460B2
